# TEST DESCRIPTION: Pharmacokinetic assay in mice, per oral administration
# Format: in vivo
# CONDITION SET: male, mouse, plasma; PO 30 mg/kg, ICR mice, original compound (ester) analyzed; class symbol; read-out: Cmax
# Description: C. Pharmacokinetic Assay in Mice The purpose of this study was to study the pharmacokinetic behaviors of some compounds of the present invention, and administration routes were: per oral administration (PO) to ICR mice: The compounds used in this test came from the compounds of the specific examples of the present invention. ICR mice male N=3 original source: Shanghai Sippr-BK Laboratory Animal Co. Ltd. 2.3 Preparation and Administration of Medicaments […]
ATTRIBUTE MEASURED: Cmax

# COMPOUND, ATTRIBUTE MEASURED, EXPERIMENTAL VALUE
rows = [
    ("COC(=O)[C@@H]1CCCCN1Cc1cnc(C(=O)Nc2cccc(-c3cccc(NC(=O)c4cc(C)c(CN5CCCC[C@H]5C(=O)OC)cn4)c3C)c2C)cc1C [Example 26]", "Cmax", "> 500 ng/mL"),
    ("COC(=O)[C@@H]1CCCCN1Cc1cnc(C(=O)Nc2cccc(-c3cccc(NC(=O)c4cc(OC)c(CN5CCCC[C@H]5C(=O)OC)cn4)c3C)c2C)cc1OC [Example 64]", "Cmax", "> 500 ng/mL"),
]
